Reference source for all entries: patent US20200369728A1

# Test system: SJSA-1 cells
# METHOD SUMMARY: Cell lysis by peptidomimetic macrocycles (LDH release)
# Type: cell-based
# TEST CONDITIONS: 50 μM, SJSA-1, 1 h
Bridge positions count the residues as written; N and C are the ends. Square brackets hold non-standard residues; d marks the D form. Peptide text beside a SMILES is read from it. R8 = C=CCCCCCC[C@@](C)(N)C(=O)O; S5 = C=CCCC[C@](C)(N)C(=O)O; Ac3c = NC1(C(=O)O)CC1
Please go through the items and note down their 50 μM % Lysed cells (1 h LDH).
Numeric answer plus unit only.

Input CC(=O)N[C@@H](Cc1ccccc1)C(=O)N[C@]1(C)CCCCCCC=CCCC[C@@](C)(C(=O)N[C@@H](C)C(=O)N[C@@H](C)C(=O)N[C@@H](CC(C)C)C(N)=O)NC(=O)[C@H](CC(C)C)NC(=O)C2(CC2)NC(=O)[C@H](CCC(=O)O)NC(=O)[C@H](Cc2c[nH]c3ccccc23)NC(=O)[C@H](Cc2ccc(O)cc2)NC(=O)[C@H](C)NC1=O [compound 15] (Ac-F[R8]AYWE[Ac3c]L[S5]AAL-NH2; staple 2-9) . Output 50 μM % Lysed cells (1 h LDH): 5%

Input CC[C@H](C)[C@H](NC(=O)[C@H](C)NC(=O)[C@H](C)NC(=O)[C@]1(C)CCCC=CCCCCCC[C@@](C)(NC(=O)[C@H](Cc2ccccc2)NC(=O)[C@@H](NC(=O)[C@H](CC(C)C)NC(C)=O)[C@@H](C)O)C(=O)N[C@@H](C)C(=O)N[C@@H](Cc2ccc(O)cc2)C(=O)N[C@@H](Cc2c[nH]c3ccccc23)C(=O)N[C@@H](C)C(=O)N[C@@H](CCC(N)=O)C(=O)N[C@@H](CC(C)C)C(=O)N1)C(=O)N[C@H](CC(C)C)C(N)=O (single isomer, unassigned) [compound 82] . Output 50 μM % Lysed cells (1 h LDH): 1%
